- Organism: Sus scrofa
- procedure-text: Competitive inhibition of pig PAP using para-nitrophenol as substrate at pH 4.9 preincubated for 10 mins by UV-visible spectrophotometry
experimental-endpoint: Kic

Examples with their reported Kic follow.
>  <smiles-data>
CC1(C)S[C@@H]2[C@H](NC(=O)c3ccc(C(=O)c4ccc([N+](=O)[O-])cc4)cc3)C(=O)N2[C@H]1C(=O)O

>  <experimental-endpoint>
Kic

>  <value>
17 µM

$$$$
>  <smiles-data>
CC1(C)S[C@@H]2[C@H](NC(=O)c3ccc(C(=O)c4ccccc4Cl)cc3)C(=O)N2[C@H]1C(=O)O

>  <experimental-endpoint>
Kic

>  <value>
32 µM

$$$$
>  <smiles-data>
CC1(C)S[C@@H]2[C@H](NC(=O)c3ccc(C(=O)c4ccccc4)cc3)C(=O)N2[C@H]1C(=O)O

>  <experimental-endpoint>
Kic

>  <value>
26 µM

$$$$
>  <smiles-data>
CC1(C)S[C@@H]2[C@H](NC(=O)c3ccc(C(=O)c4ccc(Cl)cc4)cc3)C(=O)N2[C@H]1C(=O)O

>  <experimental-endpoint>
Kic

>  <value>
12 µM

$$$$
>  <smiles-data>
CC(=O)Oc1ccc(C(=O)N[C@@H]2C(=O)N3[C@@H]2SC(C)(C)[C@@H]3C(=O)O)cc1

>  <experimental-endpoint>
Kic

>  <value>
53 µM

$$$$
>  <smiles-data>
CC1(C)S[C@@H]2[C@H](NC(=O)c3ccc(C(=O)c4cccc([N+](=O)[O-])c4)cc3)C(=O)N2[C@H]1C(=O)O

>  <experimental-endpoint>
Kic

>  <value>
23 µM

$$$$
>  <smiles-data>
Cc1ccc(C(=O)c2cccc(C(=O)N[C@@H]3C(=O)N4[C@@H]3SC(C)(C)[C@@H]4C(=O)O)c2)cc1

>  <experimental-endpoint>
Kic

>  <value>
60 µM

$$$$

Sure, the documented Kic for "CC1(C)S[C@@H]2[C@H](NC(=O)c3cccc(C(=O)N4CCCCC4)c3)C(=O)N2[C@H]1C(=O)O" is 241 µM
